# tested-on: α-glucosidase
# test: Kinetic analysis and inhibition mechanism of α-glucosidase inhibition
# run-parameters: EI dissociation constant; Dixon plot and secondary replot

- molecule: "O=[N+]([O-])c1ccc(/N=N/c2ccc(O)cc2O)cc1 [TR-1]"
  Ki [µM]: 220

* * *

# Tested on: S. aureus (DR)
# test: Antibacterial activity, minimum inhibitory concentration
# Type: cell-based
# Set-up: key: R: resistant; S: sensitive
# run-parameters: 250 µg/200 µL
quantity-kind: Minimum inhibitory concentration: sensitive/resistant

- compound: "Oc1ccc(N=Nc2cccnc2Cl)c(O)c1"
  test-value: "R"
- compound: "O=[N+]([O-])c1ccc(/N=N/c2ccc(O)c3ccccc23)cc1"
  test-value: "S"
- compound: "Oc1ccc(N=Nc2cccnc2Cl)c2ccccc12"
  test-value: "R"
- compound: "O=[N+]([O-])c1ccc(/N=N/c2c(O)ccc3ccccc23)cc1"
  test-value: "R"
- compound: "O=[N+]([O-])c1ccc(/N=N/c2ccc(O)cc2O)cc1"
  test-value: "R"
- compound: "COc1c(N2C[C@@H]3CCCN[C@@H]3C2)c(F)cc2c(=O)c(C(=O)O)cn(C3CC3)c12 [Moxifloxacin, reference compound]"
  test-value: "S"
